Where do these numbers come from? They come from PubChem BioAssay AID602438.

- target entity: Neuropilin-1 (Homo sapiens) (UniProt O14786)
- Sequence (O14786 whole entry, looked up): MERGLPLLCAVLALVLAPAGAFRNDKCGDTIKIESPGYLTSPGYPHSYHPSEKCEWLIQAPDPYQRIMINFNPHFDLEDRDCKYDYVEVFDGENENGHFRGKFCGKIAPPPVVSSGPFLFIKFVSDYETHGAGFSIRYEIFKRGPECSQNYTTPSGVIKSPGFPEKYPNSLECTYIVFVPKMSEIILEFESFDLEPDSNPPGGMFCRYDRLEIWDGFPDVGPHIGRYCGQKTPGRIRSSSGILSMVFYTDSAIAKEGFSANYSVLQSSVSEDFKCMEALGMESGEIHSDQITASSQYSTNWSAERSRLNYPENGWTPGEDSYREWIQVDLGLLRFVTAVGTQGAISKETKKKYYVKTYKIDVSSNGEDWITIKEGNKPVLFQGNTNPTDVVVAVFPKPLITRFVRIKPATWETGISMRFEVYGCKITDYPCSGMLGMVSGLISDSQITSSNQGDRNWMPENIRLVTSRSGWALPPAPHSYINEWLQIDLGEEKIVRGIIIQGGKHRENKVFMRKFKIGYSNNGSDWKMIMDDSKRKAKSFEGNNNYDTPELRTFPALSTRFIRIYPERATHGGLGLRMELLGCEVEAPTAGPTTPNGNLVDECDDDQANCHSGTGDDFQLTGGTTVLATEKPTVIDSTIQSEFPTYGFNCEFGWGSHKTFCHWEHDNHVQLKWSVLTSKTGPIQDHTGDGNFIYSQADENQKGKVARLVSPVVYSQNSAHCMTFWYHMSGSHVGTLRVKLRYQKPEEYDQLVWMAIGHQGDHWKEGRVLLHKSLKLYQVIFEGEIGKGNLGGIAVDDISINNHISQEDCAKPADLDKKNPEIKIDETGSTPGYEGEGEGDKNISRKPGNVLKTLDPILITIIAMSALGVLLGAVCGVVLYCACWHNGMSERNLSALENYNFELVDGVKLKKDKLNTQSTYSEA
- assay: NRP-1/CendR peptide interaction modulators – biochemical, fluorescence polarization, uHTS, primary screen (AID 602438)
- condition parameters: FAM-RPARPAR peptide binding to NRP-1, fluorescence polarization; at 25 µM; stronger effect = higher value
Among all 360,000 compounds or so, about 3,100 (0.86%) were called active. The full list was thinned out, with actives kept by preference.
observation type: inhibition (%)
Report as a plain number; the unit % is understood.

CCc1ccnc(NC(=O)Nc2ccc(OCc3ccccc3)cc2)c1 | 2.7
O=C(c1ccc(F)cc1)C1CCN(Cc2cn[nH]c2-c2ccccc2)CC1 | -10.4
COC(=O)c1c(C)[nH]c(C(=O)NCCc2ccc(S(N)(=O)=O)cc2)c1C | -1.4
COC(=O)CCCC1=CC2=C(c3ccccc3)C(=O)C(C)(OC(=O)C3CCCC3)C(=O)C2=CN1c1ccc(OC)cc1 (stereo unspecified) | -6.8
COC(=O)CCCC1=CC2=CC(=O)C(C)(OC(=O)c3cccs3)C(=O)C2=CN1c1cccc(C#N)c1 (stereo unspecified) | -18.7

Using the record for CN(C)/C(=N\OC(=O)c1ccccc1)c1nonc1N , report its inhibition. 2

====

- target entity: Neuropilin-1 (Homo sapiens)
- assay: NRP-1/CendR peptide interaction modulators – biochemical, fluorescence polarization, uHTS, primary screen (AID 602438)
- condition parameters: FAM-RPARPAR peptide binding to NRP-1, fluorescence polarization; at 25 µM; stronger effect = higher value
The whole screen tested about 360,000 compounds, of which about 3,100 (0.86%) were called active. What follows is part of a selection rich in actives, with near analogues and random picks from the rest.
The label depends only on inhibition: 1 if it is at least 10%, 0 if it is smaller.

Sample answers from the record:
C/C(N)=C(\C#N)C(=O)NCCc1ccccn1 | 0
Cc1n[nH]c(C)c1S(=O)(=O)N1CCCC(C(=O)NCC2COc3ccccc3O2)C1 (configuration not stated) | 0
CCOC(=O)C1=CC[C@@H](c2ccncc2)N(S(=O)(=O)c2ccc(C)cc2)C1 | 1

Answer whether inhibition of COc1ccc(CN2[C@@H](CC(=O)O)c3cc(F)ccc3S2(=O)=O)cc1 is greater than or equal to 10%. 1

Does the reported inhibition for CCOc1ccc(N(CC(=O)NCCOc2ccccc2OC)S(=O)(=O)c2ccccc2)cc1 fall at or above the 10% mark? 0

# bool: inhibition of COc1ccc(CN2C3CCCC2CC(NC(=O)c2cccc(F)c2)C3)cc1 (configuration not stated) >= 10% 0

Is it the case that Nc1cccc(OCCCCCOc2cccc(N)c2)c1 has inhibition reaching or exceeding 10%? 0

Would you say CCOC(=O)C1=CCC(c2ccc(F)cc2)N(S(=O)(=O)c2ccc(C)cc2)C1 (configuration not stated) shows inhibition at minimum 10%? 1

Would you say O=C1c2ccccc2C(O)N1Cc1ccccc1 (configuration not stated) shows inhibition at minimum 10%? 0

Decide: inhibition of COC(=O)Nc1ncc(CN2CCCCC2)s1 >= 10%? 0

hey, is inhibition for this one >= 10%? CCOc1ccc(/C(O)=C2/C(=O)C(=O)N(Cc3cccnc3)C2c2ccc(N(C)C)cc2)c(C)c1 (configuration not stated) 0

I'd appreciate it if you could say whether C=C(C)C1CC=C(C)/C(=N\NC(=O)CNc2ccccc2OC)C1 (configuration not stated) has inhibition at least equal to 10%. 1

Evaluate O=C(O)c1ccc(F)c(S(=O)(=O)Nc2ccccc2)c1 : inhibition at minimum 10%? 0
